system: DMS-114; test: NCI tumour cell line growth inhibition, 48 h
The source made the active and inactive calls. No stated cut-off is given here; in the data, active = GI50 up to about 1.1 µM and inactive = higher.
// reported GI50 per item

Example entries and their recorded answers appear below.
Ask | Item under review: COC(=O)/C(=N\NC(N)=O)C(C#N)c1ccccc1 (stereo not given) . Reported GI50?
Reply | > 100 µM (inactive)

Ask | Query (compound): COC(=O)CCC(=O)NC1C2CC3CC(C2)CC1C3 (stereo not given) ; field requested: GI50
Reply | > 100 µM (inactive)

Ask | State the recorded GI50 for this entry: `CCc1cc2c(O)c(c1)Cc1cc(CC)cc(c1O)Cc1cc(CC)cc(c1O)Cc1cc(CC)cc(c1O)Cc1cc(CC)cc(c1O)Cc1cc(CC)cc(c1O)Cc1cc(CC)cc(c1O)C2`
Reply | > 100 µM (inactive)

Ask | Reported GI50 for `CCOC(=O)C(Cc1c(C=O)[nH]c2ccccc12)(NC(=O)c1ccccc1)C(=O)OCC` : what is it?
Reply | 19.8 µM (inactive)

Now, please, on to the next compound.
Ask | Suppose we examine the compound `COc1cc2nncc(SCc3ccc(Cl)c(Cl)c3)c2cc1OC` ; what GI50 value has been reported?
Reply | > 100 µM (inactive)

###

system: DU-145; test: NCI tumour cell line growth inhibition, 48 h
Calls of active or inactive are those of the source. Cut-off read from the data, not from the text of the source: active = GI50 up to about 1.1 µM and inactive = higher.
Catalogue of compounds with associated GI50

Ask | Reported GI50 for DU-145, given `CC1=CC(=O)/C(=C/NC(=S)c2ccncc2)C(=O)O1` ?
Reply | > 100 µM (inactive)

Continuing:
Ask | For DU-145, provide GI50 of `N=C(N)NS(=O)(=O)c1ccc(NC(=O)c2cccc3c(O)c4ccccc4nc23)cc1` please.
Reply | > 100 µM (inactive)

Ask | Identify the measured GI50 of `CN(C)CCNC(=O)c1cccc2c(NCC(=O)O)c3ccccc3nc12` for DU-145.
Reply | 25.3 µM (inactive)

Ask | What GI50 appears in the records for this compound with DU-145? `O=c1[nH]c2ccsc2c(=O)n1COCc1ccccc1`
Reply | > 100 µM (inactive)

Ask | I'm curious: which GI50 was measured for `Nc1nc(N)c(C2=CCNCC2)c(=O)[nH]1` tested on DU-145?
Reply | > 100 µM (inactive)

Ask | Notebook entry, DU-145 assay: GI50 of CNC(=O)OC(COC)CN1CCN(c2ccccc2C)CC1 (stereo not drawn) = ?
Reply | > 10 µM (inactive)

Ask | Reported GI50 for DU-145, given COc1ccc(C(C)NNC(=O)c2ccncc2)cc1F (stereo not drawn) ?
Reply | > 100 µM (inactive)

Ask | # get_value(readout= GI50, system= DU-145) for `O=C(O)c1ccc(NNC(=O)c2cccc3c(=O)c4ccccc4[nH]c23)cc1`
Reply | > 100 µM (inactive)

###

Recorded GI50, one value per entry.
test system: SK-OV-3; assay: NCI tumour cell line growth inhibition, 48 h
Calls of active or inactive are those of the source. Rule as the data show it: active = GI50 up to about 1.1 µM and inactive = higher.

Example entries begin here.
Ask | Given the entry CCOC(=O)N1C2C=C(C)C(C3C(C)C(=O)N31)N(C(=O)c1ccccc1)O2 (centres undefined) , report its measured GI50.
Reply | > 100 µM (inactive)

Ask | Please report the recorded GI50 for `O=S(=O)(O)c1cc(/N=[N+](\[O-])c2cc(S(=O)(=O)O)c3ccccc3c2)cc2ccccc12` .
Reply | > 100 µM (inactive)

Ask | Could you share which GI50 value was measured for `C/C(CC(=O)Nc1ccc(NC(=O)/C(C)=N/NS(=O)(=O)c2ccc(C)cc2)cc1)=N\NS(=O)(=O)c1ccc(C)cc1` ?
Reply | > 100 µM (inactive)

Next item in the queue.
Ask | Given the compound `Cc1ccc2nc(SCC(=O)N/N=C3\C(=O)Nc4ccccc43)n(-c3ccccc3)c(=O)c2c1` , what is its reported GI50?
Reply | 13.8 µM (inactive)
